// provenance: patent US20220235128A1

# ASSAYED TARGET: claudin 18.2 (isoform 2 subtype of CLDN18) (UniProt P56856)
# ASSAY COMMENT: FACS, 5 ug/ml antibody on dissociated GA0006 gastric cancer PDX tumor cells, PE anti-human IgG Fc
Reported Ratio of antibody-bound cells by item:
Answer in %, number only, no unit symbol.

// known answers, use as guide
QP207208 (antibody, V domains shown) VH: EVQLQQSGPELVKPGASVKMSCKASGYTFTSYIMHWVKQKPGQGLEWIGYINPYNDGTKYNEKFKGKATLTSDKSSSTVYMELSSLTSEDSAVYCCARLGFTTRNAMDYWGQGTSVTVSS VL: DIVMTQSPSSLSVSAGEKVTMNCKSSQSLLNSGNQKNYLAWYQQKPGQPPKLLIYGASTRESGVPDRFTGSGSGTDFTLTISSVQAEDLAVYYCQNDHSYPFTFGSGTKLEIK :: 91.7
QP201202 (antibody, V domains shown) VH: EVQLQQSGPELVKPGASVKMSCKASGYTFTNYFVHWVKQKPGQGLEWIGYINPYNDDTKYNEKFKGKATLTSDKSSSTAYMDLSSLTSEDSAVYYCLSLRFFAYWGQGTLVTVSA VL: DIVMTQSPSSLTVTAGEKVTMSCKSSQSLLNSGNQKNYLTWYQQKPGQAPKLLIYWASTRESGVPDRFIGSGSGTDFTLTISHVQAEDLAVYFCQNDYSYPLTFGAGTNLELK :: 90
QP190191 (antibody, V domains shown) VH: EVKLVESGGGLVKPGGSLKLSCAASGFTFSNYAMSWVRQTPEKRLEWVASIISGGRTYYLDSEKGRFTISRDNARNNLYLQMSSLRSEDTAMYYCTRIYYGNSFDYWGQGTTLTVSS VL: DIVMTQSPSSQTVTAGEKVTMSCKSSQSLLNSGNQKNYLTWYQQKPGQPPKLLIYWASTRESGVPDRFTGSGSGTDFTLTISNMQAEDLAVYYCQNDYSYPFTFGSGTKLEIK :: 91.5

QUERY: Ratio of antibody-bound cells lookup needed for QP192193 (antibody, V domains shown) VH: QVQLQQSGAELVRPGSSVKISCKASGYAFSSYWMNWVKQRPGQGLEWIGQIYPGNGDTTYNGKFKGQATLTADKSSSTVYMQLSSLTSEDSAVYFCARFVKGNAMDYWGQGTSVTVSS VL: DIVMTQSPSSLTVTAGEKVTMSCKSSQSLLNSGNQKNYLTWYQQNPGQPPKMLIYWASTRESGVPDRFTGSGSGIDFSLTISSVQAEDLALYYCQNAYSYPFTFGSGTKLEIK , thanks.
RESULT: 92.4
